Reference source for all entries: PubChem BioAssay

Experiment: basal RPMI8226 mitochondrial membrane potential changes, profiling panel, cell-based, JC-1 fluorescence, 24 h, 100 nL compound (AID 1169); also: test concentration not given here
Conditions: RPMI8226 myeloma, JC-1 mitochondrial potential fluorescence, higher = more signal
Assay metric: z-score

Solved entries:
Compound	z-score
COC(=O)[C@@]1(Cc2ccc(OC)cc2)[C@H]2c3cc(C(=O)N4CCCC4)n(Cc4ccccn4)c3C[C@H]2CN1C(=O)c1ccccc1	0.556
COC(=O)[C@@]1(Cc2ccccc2)[C@H]2c3cc(C(=O)N(C)C)n(Cc4c(-c5ccccc5)noc4C)c3C[C@H]2CN1C(=O)c1ccccc1	0.168
COCC1=C2[C@@H](CCc3ccccc3)OB(O)C[C@@H]2[C@@H]2C(=O)N(Cc3ccccc3)C(=O)[C@@H]2C1	-0.812

Now let's try a different one.
Measured z-score of CC(C)c1ccc(NN2C(C(O)c3cccc(O)c3)C=CC3C(=O)N(c4ccccc4)C(=O)C32)cc1 (centres undefined) : -0.554
